assay.explanation: Nrf2 qHTS screen for inhibitors; further: nearly all actives have a fitted effect of over 60% in size
assay.conditions: A549 ARE-Fluc reporter, luciferase luminescence, 18-24 h; series mostly up to 46 µM
Among all 360,000 compounds or so, about 7,500 (2.1%) were called active. Roughly 20% stayed inconclusive and do not appear here. The call rests on the fitted dose curve; in most records, active means well fitted inhibition curve with a large enough effect; inconclusive means small, poorly fitted or top-dose-only effect, or effect the other way; inactive means flat fitted curve, though single readings scatter. This is one part of a sample in which actives are shown more often than they occur.
Classes used: t = active, f = inactive

compound=Cc1nn(-c2ccccc2)c(C)c1NC(=O)COC(=O)Cc1ccccc1 answer_label=f
compound=Cc1ccc(N(C)C(=O)Oc2cccc3ccc(C)nc23)cc1 answer_label=f
compound="CC(CC(C#N)(c1ccccc1)c1ccccc1)N1CCCCC1 (stereo not given)" answer_label=f
compound=O=C(O)c1cc[c]([Sb](=[O])([OH])[OH])cc1[N+](=O)[O-] answer_label=f
compound="Cc1ccc(Cl)cc1N1CCN(C(=O)C2CCC(CNS(=O)(=O)c3cccs3)CC2)CC1 (stereo not given)" answer_label=t

====

assay.explanation: Nrf2 qHTS screen for inhibitors; further: nearly all actives have a fitted effect of over 60% in size
assay.conditions: A549 ARE-Fluc reporter, luciferase luminescence, 18-24 h; series mostly up to 46 µM
Among all 360,000 compounds or so, about 7,500 (2.1%) were called active. Inconclusive results (about 20%) are left out. Calls come from the whole dose curve; as a rule, active = well fitted inhibition curve with a large enough effect; inconclusive = small, poorly fitted or top-dose-only effect, or effect the other way; inactive = flat fitted curve, though single readings scatter. The sample as a whole holds a higher share of actives than the screen did.
Classes used: active, inactive

compound=CCc1ccc(OCC(=O)N2CCN(CC(=O)Nc3ccccc3Cl)CC2)cc1 answer_label=inactive
compound="C[C@]12CCC3C(CC[C@H]4C[C@@H](O)CC[C@]34C)C1C[C@@H](O)[C@H]2O (stereo not given in full)" answer_label=inactive
compound="CC1([N+](=O)[O-])COP(=O)(Nc2ccc(F)cc2)OC1 (stereo not given)" answer_label=inactive
compound="C[C@]12CCC3C(CC[C@H]4C[C@@H](O)CC[C@]34C)C1CC[C@@H]2O (stereo not given in full)" answer_label=inactive
compound="C[C@]12CC[C@H](O)C[C@H]1CC[C@@H]1C2CC[C@]2(C)[C@@H](C3=CC(=O)OC3)[C@@H](O)C[C@]12O (stereo not given in full)" answer_label=active

====

assay.explanation: Nrf2 qHTS screen for inhibitors; further: nearly all actives have a fitted effect of over 60% in size
assay.conditions: A549 ARE-Fluc reporter, luciferase luminescence, 18-24 h; series mostly up to 46 µM
Screen size: about 360,000 compounds; about 7,500 (2.1%) were called active. Roughly 20% stayed inconclusive and do not appear here. Calls follow the shape of the dose curve; as a rule, active = well fitted inhibition curve with a large enough effect; inconclusive = small, poorly fitted or top-dose-only effect, or effect the other way; inactive = flat fitted curve, though single readings scatter. Many of the other results were omitted from the sample, so actives are more common in it than they were.
Possible outcomes: active, inactive

compound="CN(C)CC1Oc2ccccc2OC1(O)c1ccccc1 (stereo not drawn)" answer_label=active
compound="CCOC(=O)CC(SP1(=S)OCC2(CCCCO2)C(C2CCCCO2)O1)C(=O)OCC (stereo not drawn)" answer_label=inactive
compound=CC/C(=N\NC(=O)c1ccccc1O)c1c(O)n(Cc2ccccc2)c(=O)[nH]c1=O answer_label=inactive
compound=COc1ccc(NC(=O)c2cn(CCC#N)nc2-c2ccc([N+](=O)[O-])cc2)cc1 answer_label=inactive
compound=O=C1N=c2ccccc2=C/C1=C\c1c(O)[nH]c(=S)[nH]c1=O answer_label=inactive
compound="COC1=CC=C2[C@H]3Cc4ccc(OC)c5c4[C@@]2(CCN3C)C1O5 (stereo partly drawn)" answer_label=inactive
compound="CCC(=O)OC(Cc1ccccc1)(c1ccccc1)C(C)CN(C)C (stereo not drawn)" answer_label=inactive
compound=CN(C)C(=O)Oc1ccc(NC(=O)N2CCOCC2)cc1 answer_label=inactive
compound=O=C(CCC(=O)N1C[C@H]2C[C@@H](C1)c1cccc(=O)n1C2)NCc1ccccc1C(F)(F)F answer_label=inactive
compound=Cc1cc(C(=O)OCC(=O)Nc2c(F)cccc2F)c(C)n1C1CC1 answer_label=inactive
compound=COC(=O)C1=C(c2ccccc2)C[C@@H]2CC[C@H]1N2C(=O)NCc1ccco1 answer_label=inactive
compound="C[C@]12CC[C@H](O)CC1=C([N+](=O)[O-])CC1C2CC[C@@]2(C)C1CC[C@@H]2O (stereo partly drawn)" answer_label=inactive
compound="C[C@]12CCC3C(CC[C@H]4[C@H](O)[C@H](O)CC[C@]34C)C1CC[C@@H]2O (stereo partly drawn)" answer_label=inactive
compound="COC1C(O)C(C)OC(OC2CCC3(C=O)C(CCC4C3CCC3(C)C(C5=CC(=O)OC5)CCC43O)C2)C1O (stereo not drawn)" answer_label=active
compound="CCC(C)(O)C(=O)OC1C(=O)OC2CC3C(C)=CC(=O)C(O)C3(C)C3C4(O)OCC23C1C(C)C4O (stereo not drawn)" answer_label=active
compound="CC(C)Oc1cccc(C(=O)C2CCCN(C3CCOCC3)C2)c1 (stereo not drawn)" answer_label=inactive
compound="O=C1C2(Cl)C3(Cl)C4(Cl)C(Cl)(Cl)C5(Cl)C3(Cl)C1(Cl)C5(Cl)C24Cl (stereo not drawn)" answer_label=inactive
compound=COC(=O)C1=C(c2ccc(F)cc2F)C[C@@H]2CC[C@H]1N2C(=O)NC1CC1 answer_label=inactive
compound=c1cc2c(cc1CCNC1CCCCCC1)OCO2 answer_label=inactive
compound=Cn1cc(/C=C/c2nc3ccccc3c(=O)n2-c2ccccc2)c2ccccc21 answer_label=inactive
compound="CCC1(CC(C)c2ccccc2)C(=O)NC(=O)NC1=O (stereo not drawn)" answer_label=inactive
compound=COC(=O)C1=C(c2ccc(F)cc2OCc2ccccc2)C[C@@H]2CC[C@H]1N2C(=O)NCc1ccc(Cl)cc1 answer_label=active
compound=CC(=O)c1c(O)n(C2CCCCCC2)c(=O)[nH]c1=O answer_label=inactive
compound=Cn1cc(C(=O)OCC(=O)N2CCCC2)c2ccccc21 answer_label=inactive
compound="CC=C(C)C(=O)OC1CCN2CC=C(COC(=O)C(O)(C(C)OC)C(C)(C)O)C12 (stereo not drawn)" answer_label=inactive
compound=COP(=O)(NS(=O)(=O)c1ccccc1)OC answer_label=inactive
compound=COC(=O)C1=C(c2c(C)noc2C)C[C@@H]2CC[C@H]1N2C(=O)NCc1ccc2c(c1)OCO2 answer_label=inactive
compound=CCCn1c(C(=O)c2ccccc2OC)nc2ccccc21 answer_label=inactive
compound=CCCCCCCCCCCCn1ccc(=N)cc1 answer_label=active
compound=CC[C@H]1CN2CCc3cc(OC)c(OC)cc3[C@@H]2C[C@@H]1C[C@H]1NCCc2cc(OC)c(OC)cc21 answer_label=active
compound="CC1CCCN1CCC(C(N)=O)(c1ccccc1)c1ccccc1 (stereo not drawn)" answer_label=inactive
compound=C=C(C)C1(CCCC)C(=O)NC(=S)NC1=O answer_label=inactive
compound="Oc1ccc2c3c1OC1[C@H](O)CC[C@@]4(O)[C@@H](C2)N(CC2CC2)CC[C@]314 (stereo partly drawn)" answer_label=inactive
compound=CCCCC(=O)N/N=C/c1c(O)n(-c2ccccc2)c(=O)[nH]c1=O answer_label=inactive
compound=O=c1[nH]c(=O)n(CCc2ccc(F)cc2)c(O)c1/C=N/N1CCCCC1 answer_label=inactive
compound=O=C(Nc1cccc(OC(=O)N2CCCCC2)c1)N1CCOCC1 answer_label=active
compound="CNCC(O)c1cc(F)c(OCc2ccccc2)c(OCc2ccccc2)c1F (stereo not drawn)" answer_label=inactive
compound=COc1cc(Cn2c(N)c(C(=O)NCc3ccco3)c3nc4ccccc4nc32)cc(OC)c1OC answer_label=inactive
compound="COc1ccc(C2NCc3ccc4c(c3-n3cccc32)OCO4)cc1OC (stereo not drawn)" answer_label=inactive
compound="CC12CCC(O)CC1CCC1C2CCC2(C)C(C(=O)CC(O)C(F)(F)F)CCC12 (stereo not drawn)" answer_label=inactive
compound="O=P1(Oc2ccccc2)CC(O)C(O)C(COCc2ccccc2)O1 (stereo not drawn)" answer_label=inactive
compound="COc1cccc(CN2CCCC(C(=O)c3ccccc3SC)C2)c1O (stereo not drawn)" answer_label=inactive
compound="C[C@]12CCC3C(CC[C@H]4[C@H](O)[C@H](O)CC[C@]34C)C1CCC2=O (stereo partly drawn)" answer_label=inactive
